# assayed-system: DN-IV quality control recombinant protein (produced by the company) (dengue virus)
# assay-protocol: BLI, antibody on AMC sensor
Can you tell me kon for the items I'm about to list?
Give bare numbers, in M⁻¹ s⁻¹.

binder	kon, M⁻¹ s⁻¹
Mutation 1-12 (antibody, V domains shown) VH: EVQLQQPGPELVKPGASVKMSCKASGYTFTSTVIHWVRQKPGQGLEWIGYMNPYNDGIKYNEKFIGKAILTSDKSSSTAYMQLSSLTSEDSAVYYCTREGLFYVMDYWGQGTSVTVSS VL: QIVLTQSPAIMSASPGEKVTMTCSATSSISYMHWYQQKSGTSPKRWIYDTSKLASGVPVRFSGSGSGTSYSLTISSMEAEDAATYFCQYWRSDLPTFGAGTKLELKR	42600
Mutation 1-4 (antibody, V domains shown) VH: EVQLQQPGPELVKPGASVKMSCKASGYTFTSSVIHWVRQKPGQGLEWIGYMNPYNDGLKYNEKFIGKAILTSDKSSSTAYMQLSSLTSEDSAVYYCTKEGLFYVMDYWGQGTSVTVSS VL: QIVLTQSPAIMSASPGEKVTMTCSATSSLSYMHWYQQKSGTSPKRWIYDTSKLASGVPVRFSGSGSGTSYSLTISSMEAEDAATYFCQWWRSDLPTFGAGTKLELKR	490000
Mutation 1-39 (antibody, V domains shown) VH: EVQLQQPGPELVKPGASVKMSCKASGYTFTSTVIHWVRQKPGQGLEWIGYMNPYNDGIKYNEKFIGKAILTSDKSSSTAYMQLSSLTSEDSAVYYCTREGLFYVFDYWGQGTSVTVSS VL: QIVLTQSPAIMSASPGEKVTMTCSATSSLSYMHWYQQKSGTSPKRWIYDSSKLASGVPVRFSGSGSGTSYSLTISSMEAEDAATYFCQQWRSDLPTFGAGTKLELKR	40900
Mutation 1-25 (antibody, V domains shown) VH: EVQLQQPGPELVKPGASVKMSCKASGYTFTSSVIHWVRQKPGQGLEWIGYMNPYNDGLKYNEKFIGKAILTSDKSSSTAYMQLSSLTSEDSAVYYCTREGLFYVFDYWGQGTSVTVSS VL: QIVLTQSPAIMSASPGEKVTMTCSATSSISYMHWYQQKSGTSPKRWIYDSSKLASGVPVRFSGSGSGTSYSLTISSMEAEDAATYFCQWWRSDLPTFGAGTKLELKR	47900
Mutation 1-35 (antibody, V domains shown) VH: EVQLQQPGPELVKPGASVKMSCKASGYTFTSYVIHWVRQKPGQGLEWIGYMNPYNDGLKYNEKFIGKAILTSDKSSSTAYMQLSSLTSEDSAVYYCTKEGLFYVMDYWGQGTSVTVSS VL: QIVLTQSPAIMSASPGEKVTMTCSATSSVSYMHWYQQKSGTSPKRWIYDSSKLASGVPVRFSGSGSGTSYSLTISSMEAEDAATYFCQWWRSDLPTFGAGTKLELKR	381000

For each of the items listed, what is its kon?
1. Mutation 1 (antibody, V domains shown) VH: EVQLQQPGPELVKPGASVKMSCKASGYTFTSTVIHWVRQKPGQGLEWIGYMNPYNDGLKYNEKFIGKAILTSDKSSSTAYMQLSSLTSEDSAVYYCTKEGLFYVMDYWGQGTSVTVSS VL: QIVLTQSPAIMSASPGEKVTMTCSATSSISYMHWYQQKSGTSPKRWIYDTSKLASGVPVRFSGSGSGTSYSLTISSMEAEDAATYFCQQWRSDLPTFGAGTKLELKR
2. Mutation 1-16 (antibody, V domains shown) VH: EVQLQQPGPELVKPGASVKMSCKASGYTFTSSVIHWVRQKPGQGLEWIGYMNPYNDGLKYNEKFIGKAILTSDKSSSTAYMQLSSLTSEDSAVYYCTREGLFYVMDYWGQGTSVTVSS VL: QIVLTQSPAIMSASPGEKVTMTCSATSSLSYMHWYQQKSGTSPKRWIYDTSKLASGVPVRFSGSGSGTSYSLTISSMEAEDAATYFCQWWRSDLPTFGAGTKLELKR
3. Mutation 1-27 (antibody, V domains shown) VH: EVQLQQPGPELVKPGASVKMSCKASGYTFTSTVIHWVRQKPGQGLEWIGYMNPYNDGLKYNEKFIGKAILTSDKSSSTAYMQLSSLTSEDSAVYYCTREGLFYVFDYWGQGTSVTVSS VL: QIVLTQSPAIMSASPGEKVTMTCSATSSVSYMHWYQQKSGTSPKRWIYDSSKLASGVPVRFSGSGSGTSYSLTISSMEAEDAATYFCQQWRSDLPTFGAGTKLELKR
4. Mutation 1-45 (antibody, V domains shown) VH: EVQLQQPGPELVKPGASVKMSCKASGYTFTSTVIHWVRQKPGQGLEWIGYMNPYNDGIKYNEKFIGKAILTSDKSSSTAYMQLSSLTSEDSAVYYCTKEGLFYVFDYWGQGTSVTVSS VL: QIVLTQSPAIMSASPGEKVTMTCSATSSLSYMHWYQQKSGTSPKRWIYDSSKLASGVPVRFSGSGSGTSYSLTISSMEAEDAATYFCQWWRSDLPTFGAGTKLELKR
5. WT 1-11 (antibody, V domains shown) VH: EVQLQQPGPELVKPGASVKMSCKASGYTVTSTVIHWVRQKPGQGLEWIGYMNAYNDGIKYNDKFIGKAILTSDKSSSTAYMQLSSLTSEDSAVYYCTREGLFYVMDYWGQGTSVTVSS VL: QIVLTQSPAIMSASPGEKVTMTCSGTSSISYMHWYQQKSGTSPKRWIYDTSKLASPVPVRFSGSGSGTSYSLTISSMEAEDAATYFCQYWRSVLPTFGAGTKLELKR

Response line:
1: 44200; 2: 36700; 3: 42000; 4: 41200; 5: 4270
